B1: 1-phosphatidylinositol 4,5-bisphosphate phosphodiesterase gamma-2, residues 772 to 827; numbered along this chain, P16885 (parent)
chain: RTVKALYDYKAKRSDELSFCRGALIHNVSKEPGGWWKGDYGTRIQQYFPSNYVEDI

- Variants of: B1
- assayProcedure: abundance fitness (aPCA) (normalised: wild type 0, dead -1); higher = more abundant; growth selection in yeast, the domain comes from the species named
- conditionParameters: Homo sapiens
observedProperty: abundance fitness

>>> endpointresult("RTVKALYDYKAKRSDELSFCRGALIHNVSKEPGGWWKGDYGTRIQQYRPSNYVEDI [F48R]")
-0.982
>>> endpointresult("RTVKALYDYKAKRSDELSFCRGALIHNVSKEPGGWWKGDYGTRIQQYFPSNTVEDI [Y52T]")
0.01
>>> endpointresult("RTVKALYDYKAKRSDELSFCRGALIHNVSKEPGGWWKGDYGTRIQQYFPSNYVMDI [E54M]")
-0.316
>>> endpointresult("RTVKALYDYKAKRSDELSFCRGALIHNVSKEPGGIWKGDYGTRIQQYFPSNYVEDI [W35I]")
-0.611
>>> endpointresult("RTVKALYDYKAKRLDELSFCRGALIHNVSKEPGGWWKGDYGTRIQQYFPSNYVEDI [S14L]")
-0.167
>>> endpointresult("RTVKALYDYKAKRSDELSFCRGALIHNVSKEPGGRWKGDYGTRIQQYFPSNYVEDI [W35R]")
0.089
>>> endpointresult("RTVKALYDYKAKRSDELSFCRGALIHNVSKEPGGMWKGDYGTRIQQYFPSNYVEDI [W35M]")
-0.225
>>> endpointresult("RTVKALYDYKAKRHDELSFCRGALIHNVSKEPGGWWKGDYGTRIQQYFPSNYVEDI [S14H]")
-0.107
>>> endpointresult("RTVKALYDYKAKRSDELSFCRGALIHNVSKEPGGWWKGDYGTRIQQYFPSYYVEDI [N51Y]")
-0.155
>>> endpointresult("RTVKALYDYKAKFSDELSFCRGALIHNVSKEPGGWWKGDYGTRIQQYFPSNYVEDI [R13F]")
-0.007
>>> endpointresult("RTVKALYDYKAKRSDELSFCRGALIHNVSKEPGGWWKGDYGTRIQQYFPSNHVEDI [Y52H]")
-0.222
>>> endpointresult("RTVKALYDYKAKRSDELSFCRGALIHNVSKEPGGWWKVDYGTRIQQYFPSNYVEDI [G38V]")
-0.851
>>> endpointresult("RTVKALYDYKAKRSDELSFCRGALIHNVSKEPGGWGKGDYGTRIQQYFPSNYVEDI [W36G]")
-0.58
>>> endpointresult("RTVKALYDYKAKRSDELSFCRGALIHNVSKEPGGWWKGDYPTRIQQYFPSNYVEDI [G41P]")
-1.01
>>> endpointresult("RTVKALYDYKAKRSDELSFCRGALIHNVSKEPGGWWKGDYGKRIQQYFPSNYVEDI [T42K]")
-0.243
>>> endpointresult("RTVKALYDYKAKRSDELSFCRGALIHNVSKEPGGWWKGDYGTRAQQYFPSNYVEDI [I44A]")
-0.196
>>> endpointresult("RTVKALYDYKAKRSDELSFCRGALINNVSKEPGGWWKGDYGTRIQQYFPSNYVEDI [H26N]")
-0.198
>>> endpointresult("RTVKALYDYKAKRSSELSFCRGALIHNVSKEPGGWWKGDYGTRIQQYFPSNYVEDI [D15S]")
0.006
>>> endpointresult("RGVKALYDYKAKRSDELSFCRGALIHNVSKEPGGWWKGDYGTRIQQYFPSNYVEDI [T2G]")
-0.578
>>> endpointresult("RTVKALYDYKAKRSDELSFCRGALIHNVSKEPGGWWKGDTGTRIQQYFPSNYVEDI [Y40T]")
-0.265
>>> endpointresult("RTVKALYDYKAKRSDELSFCRGALIHNNSKEPGGWWKGDYGTRIQQYFPSNYVEDI [V28N]")
-0.671
>>> endpointresult("RTVKALYDYKAKRSDELSFCRGHLIHNVSKEPGGWWKGDYGTRIQQYFPSNYVEDI [A23H]")
-0.471
